- targetEntity: Myc/Max binding to DNA (Homo sapiens)
- measurementProtocol: Electrophoretic mobility shift assay (EMSA) of Myc/Max binding to DNA
- Assay type: biochemical
- appliedConditions: EMSA, 200 uM test compound; read-out: Bound DNA (%) (200uM)
Category | rule: reported remaining activity at 200 µM within range, see low group = under 20%, middle group = from 20% up to 60%, high group = 60% and over

>>> discretelabel("Oc1cc(OCc2ccncc2)ccc1-c1n[nH]cc1Oc1ccccc1")
"high group"
>>> discretelabel("CCc1ccc(Oc2c[nH]nc2-c2ccc(OCc3cnn(-c4ccccc4)c3)cc2O)cc1")
"low group"

Categorize the following entry: `CCc1ccc(Oc2c(-c3ccc(OCc4ccncc4)cc3O)n[nH]c2C(F)(F)F)cc1` middle group

Categorize the following entry: `CCc1ccc(Oc2c[nH]nc2-c2ccc(OCCc3ccc(F)cc3)cc2O)cc1` low group

Categorize the following entry: `CCc1ccc(Oc2c[nH]nc2-c2ccc(OCCc3ccc(Cl)cc3)cc2O)cc1` middle group

Categorize the following entry: `CCc1ccc(Oc2c(-c3ccc(OCc4ccc(Cl)cc4)cc3O)nn(C)c2C(F)(F)F)cc1` low group

Categorize the following entry: `CCc1ccc(Oc2c[nH]nc2-c2ccc(OCc3ccc(F)cc3)cc2O)cc1` low group

---

- targetEntity: Myc/Max binding to DNA (Homo sapiens, UniProt P01106)
- Sequence (P01106 whole entry): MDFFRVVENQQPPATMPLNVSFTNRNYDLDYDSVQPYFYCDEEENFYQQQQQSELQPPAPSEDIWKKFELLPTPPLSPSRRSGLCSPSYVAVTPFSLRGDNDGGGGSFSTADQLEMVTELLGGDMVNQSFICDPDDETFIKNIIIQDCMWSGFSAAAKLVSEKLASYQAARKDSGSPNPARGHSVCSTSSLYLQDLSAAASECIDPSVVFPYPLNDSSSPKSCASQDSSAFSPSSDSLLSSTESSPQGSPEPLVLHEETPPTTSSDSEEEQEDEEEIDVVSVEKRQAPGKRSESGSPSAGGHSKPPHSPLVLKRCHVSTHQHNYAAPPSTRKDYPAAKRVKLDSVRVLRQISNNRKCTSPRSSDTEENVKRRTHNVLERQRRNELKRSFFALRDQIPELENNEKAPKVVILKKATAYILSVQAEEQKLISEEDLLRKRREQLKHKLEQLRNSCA
- measurementProtocol: Electrophoretic mobility shift assay (EMSA) of Myc/Max binding to DNA
- Format: biochemical
- appliedConditions: EMSA, 100 uM test compound; read-out: Bound DNA (%) (100uM)
Would you kindly list remaining activity at 100 µM for each of these compounds?
Numbers only, in %.

>>> experimentalvalue("Cn1cc(-c2ccc(F)cc2)c(-c2ccc(OCc3ccc(Cl)cc3)cc2O)n1")
135
>>> experimentalvalue("COc1ccc(-c2c(-c3ccc(OCc4ccc(Cl)cc4)cc3O)n[nH]c2C(F)(F)F)cc1OC")
4
>>> experimentalvalue("CN/N=C(\\C)c1cccc(-c2c(C(F)(F)F)nn(C)c2-c2ccc(OCc3ccc(Cl)cc3)cc2O)c1")
67
>>> experimentalvalue("Oc1cc(NCc2ccc(Cl)cc2)ccc1-c1cc(C(F)(F)F)[nH]n1")
42
>>> experimentalvalue("Cn1nc(-c2ccc(OCc3ccc(Cl)cc3)cc2O)c(-c2cc(C(F)(F)F)cc(C(F)(F)F)c2)c1C(F)(F)F")
100
>>> experimentalvalue("Cn1nc(-c2ccc(Nc3ccc4c(c3)OCO4)cc2O)cc1C(F)(F)F")
77

Batch of 5 compounds: report remaining activity at 100 µM for each.
1. CCc1c(-c2cccc(OC)c2)c(-c2ccc(OCc3ccc(Cl)cc3)cc2O)nn1C
2. Cn1nc(C(F)(F)F)c(-c2cccc(C(N)=O)c2)c1-c1ccc(OCc2ccc(Cl)cc2)cc1O
3. Cn1nc(C(F)(F)F)cc1-c1ccc(OCc2ccc(Cl)cc2)cc1O
4. Cc1ccc(C)c(Oc2c[nH]nc2-c2ccc(OCc3cccc(Cl)c3)cc2O)c1
5. COc1cccc(-c2c(C)nn(C)c2-c2ccc(OCc3ccc(Cl)cc3)cc2O)c1

[126, 57, 91, 65, 105]

Batch of 4 compounds: report remaining activity at 100 µM for each.
1. Cn1ncc(-c2ccoc2)c1-c1ccc(OCc2ccc(Cl)cc2)cc1O
2. Oc1cccc(OCc2ccc(Cl)cc2)c1-c1cc(C(F)(F)F)n[nH]1
3. COc1ccc(-c2c(-c3ccc(OCc4ccc(Cl)cc4)cc3O)noc2C(F)(F)F)cc1OC
4. Cn1nc(C(F)(F)F)c(Br)c1-c1ccc(OCc2ccc(Cl)cc2)cc1O

1: 70; 2: 83; 3: 71; 4: 13

Batch of 7 compounds: report remaining activity at 100 µM for each.
1. Oc1cc(OCc2ccc(Cl)cc2)ccc1-c1n[nH]c(C(F)(F)F)c1-c1ccc(F)c(C(F)(F)F)c1
2. CCc1ccc(Oc2c(-c3ccc(OCCc4cccc(C(F)(F)F)c4)cc3O)n[nH]c2C(F)(F)F)cc1
3. CCc1ccc(Oc2c(-c3ccccc3O)nn(C)c2C(F)(F)F)cc1
4. Cn1nc(-c2ccc(OCc3ccc(Cl)cc3)cc2O)c(-c2ccc(Cl)c(C(F)(F)F)c2)c1C(F)(F)F
5. Cn1nc(C(F)(F)F)cc1-c1ccc(OCc2ccc(Cl)cc2)cc1N
6. Cn1nc(C(F)(F)F)cc1-c1cnc(O)cn1
7. COc1ccc(-c2c(-c3ccc(OCc4ccc(Cl)cc4)cc3O)n[nH]c2C(F)(F)F)cc1

91
36
101
97
105
98
51
